# protocol.description: AP1 Signaling Pathway (AID 357);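 also: ME-180 reporter cells stimulated with EGF at its EC50 level; % is scaled to controls: 0 for no effect and ±100 for the full control effect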
# condition.details: ME-180 (cervical carcinoma) AP-1-bla reporter, EGF-induced, beta-lactamase ratio, 5 h; at 17.2 µM (top of the series) unless noted
Results filed as inconclusive are left out.
measured.endpoint: activity change, negative = inhibition (%)
Report the value in % with no unit label.

QUERY: Report activity change, negative = inhibition for `CCOC(=O)c1[nH]c2ccc(OC)cc2c1NC(=O)CCN1CCN(Cc2ccccc2)CC1`
RESULT: -6.55

QUERY: Report activity change, negative = inhibition for CC(C)C(C(=O)Nc1ncn[nH]1)N1C(=O)c2ccccc2C1=O (stereo unspecified)
RESULT: 21.4

QUERY: Report activity change, negative = inhibition for COc1cc(C2C(C(=O)c3ccc(C)o3)=C(O)C(=O)N2c2cc(C)on2)cc(OC)c1OC (stereo unspecified)
RESULT: 5.13

QUERY: Report activity change, negative = inhibition for CCOC(=O)c1ccc(N2C(=O)CC(Sc3nnc(C)s3)C2=O)cc1 (stereo unspecified)
RESULT: 6.1

QUERY: Report activity change, negative = inhibition for `OCCOCCNc1ncnc2c1cnn2-c1ccc(Cl)cc1`
RESULT: 9.08

QUERY: Report activity change, negative = inhibition for Cc1cc(C)c(C#N)c(SCc2[nH]nc3c2C(c2ccccc2)C(C#N)=C(N)O3)n1 (stereo unspecified)
RESULT: -21.7

QUERY: Report activity change, negative = inhibition for CCOC(=O)C(C#N)C(Cc1ccccc1)c1ccco1 (stereo unspecified)
RESULT: -10.1

QUERY: Report activity change, negative = inhibition for `COCCCNc1nc(-c2ccncc2)nc2ccccc12`
RESULT: -12.4

Just for reference, PubChem BioAssay (NCATS) is where these values come from.
